Documented pIC50 across a set of compounds
Molecular target: FXR (Homo sapiens, UniProt Q96RI1)
Construct: 5 μL of 20 nM FXR-LBD Complete Coregulator buffer G; purchased ThermoFisher PV4833
Sequence (Q96RI1 262-486 limits assumed): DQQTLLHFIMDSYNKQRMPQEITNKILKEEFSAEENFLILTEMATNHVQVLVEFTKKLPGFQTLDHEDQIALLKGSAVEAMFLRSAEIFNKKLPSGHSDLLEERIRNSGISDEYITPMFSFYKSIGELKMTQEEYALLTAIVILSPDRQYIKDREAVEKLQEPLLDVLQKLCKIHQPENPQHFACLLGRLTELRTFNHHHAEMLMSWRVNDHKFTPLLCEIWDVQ
Experiment: FXR antagonist screening by TR-FRET (LanthaScreen TR-FRET FXR co-activation assay kit)
Assay type: biochemical
Details: Table 1.2, FXR antagonistic activity; TR-FRET with CDCA; geometric means of at least two independent runs
pIC50: −log10 of the molar value.

Reported pIC50 for O=C(O)c1cc2ccc(S(=O)(=O)N(CCc3ccccc3)c3ccccc3N3CCN(C(=O)c4sccc4Br)CC3)cc2o1 was 5.00 to 7.00

Reported pIC50 for CCOC(=O)c1oc2ccc(S(=O)(=O)N(CCc3ccccc3)c3ccccc3N3CCN(C(=O)c4ccc([N+](=O)[O-])cc4)CC3)cc2c1C was 4.00 to 4.30

Reported pIC50 for Cc1c(CO)oc2ccc(S(=O)(=O)N(CCc3ccccc3)c3ccccc3N3CCN(C(=O)c4sccc4Br)CC3)cc12 was 5.00 to 7.00

Reported pIC50 for CCOC(=O)c1oc2ccc(S(=O)(=O)N(CCc3ccccc3)c3ccccc3N3CCN(C(=O)C(CC)CC)CC3)cc2c1C was 4.00 to 4.30

Reported pIC50 for Cc1c(C(=O)O)oc2ccc(S(=O)(=O)N(CCc3ccccc3)c3ccccc3N3CCN(C(=O)c4cccs4)CC3)cc12 was 5.00 to 7.00

Reported pIC50 for Cc1ccsc1C(=O)N1CCN(c2ccccc2N(CCc2ccccc2)S(=O)(=O)c2ccc3oc(C(=O)O)c(C)c3c2)CC1 was 5.00 to 7.00

Reported pIC50 for C/C=C/C(=O)N1CCN(c2ccccc2N(CCc2ccccc2)S(=O)(=O)c2ccc3oc(C(=O)O)c(C)c3c2)CC1 was 5.00 to 7.00

Reported pIC50 for COc1ccccc1C(=O)N1CCN(c2ccccc2N(CCc2ccccc2)S(=O)(=O)c2ccc3oc(C(=O)O)c(C)c3c2)CC1 was 5.00 to 7.00

Reported pIC50 for CCOC(=O)c1oc2ccc(S(=O)(=O)N(CCc3ccccc3)c3ccccc3N3CCN(C(=O)C4CCCC4)CC3)cc2c1C was 4.00 to 4.30

Reported pIC50 for CCOC(=O)c1oc2ccc(S(=O)(=O)N(CCc3ccccc3)c3ccccc3N3CCN(C(=O)c4cncs4)CC3)cc2c1C was 4.00 to 4.30

Reported pIC50 for Cc1c(C(=O)O)oc2ccc(S(=O)(=O)N(CCc3ccccc3)c3ccccc3N3CCN(C(=O)c4ccc(F)cc4)CC3)cc12 was 5.00 to 7.00

Reported pIC50 for Cc1c(C(=O)O)oc2ccc(S(=O)(=O)N(CCc3ccccc3)c3ccccc3N3CCN(C(=O)c4cnco4)CC3)cc12 was 5.00 to 7.00

Reported pIC50 for CCOC(=O)c1[nH]c2ccc(S(=O)(=O)N(CCc3ccccc3)c3ccccc3N3CCN(C(=O)c4sccc4Br)CC3)cc2c1Cl was 4.00 to 4.30

Reported pIC50 for Cc1c(C(=O)O)oc2ccc(S(=O)(=O)N(CCc3ccccc3)c3ccccc3N3CCN(C(=O)c4ccc([N+](=O)[O-])cc4)CC3)cc12 was 5.00 to 7.00

====

Target: FXR (Homo sapiens, UniProt Q96RI1)
Construct: 5 μL of 20 nM FXR-LBD Complete Coregulator buffer G; purchased ThermoFisher PV4833
Sequence (Q96RI1 262-486 limits assumed): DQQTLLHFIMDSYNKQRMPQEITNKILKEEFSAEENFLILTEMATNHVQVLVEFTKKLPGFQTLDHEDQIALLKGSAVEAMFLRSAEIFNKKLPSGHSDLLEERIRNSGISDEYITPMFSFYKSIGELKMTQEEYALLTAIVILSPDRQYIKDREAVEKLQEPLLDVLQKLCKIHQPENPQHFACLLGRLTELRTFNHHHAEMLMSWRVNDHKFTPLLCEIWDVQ
Assay: FXR antagonist screening by TR-FRET (LanthaScreen TR-FRET FXR co-activation assay kit)
Assay type: biochemical
Details: Table 1.1, FXR antagonistic activity; TR-FRET with CDCA; geometric means of at least two independent runs
Documented IC50 across a set of compounds

Observe how each entry below is paired with its result.
Cc1c(C(=O)O)oc2ccc(S(=O)(=O)N(CCc3ccccc3)Cc3ccc(Br)cc3)cc12 [Example F27-S30]    10 to 50 µM
Cc1c(C(=O)O)oc2ccc(S(=O)(=O)N(CCc3ccccc3)Cc3ccccc3N3CCN(C(=O)CC(C)(C)C)CC3)cc12 [Example F27-S103]    10 to 50 µM
CCOC(=O)c1oc2ccc(S(=O)(=O)N(CCc3ccccc3)Cc3ccc(C(F)(F)F)cc3F)cc2c1C [Example M4-55]    50 to 100 µM

Reported IC50 for CCOC(=O)c1oc2ccc(S(=O)(=O)N(CCc3ccccc3)Cc3ccc(C(=O)OC(C)(C)C)cc3)cc2c1C [Example M4-40] was 50 to 100 µM

Reported IC50 for Cc1ccccc1CN(CCc1ccccc1)S(=O)(=O)c1ccc2oc(C(=O)O)c(C)c2c1 [Example F27-S17] was 10 to 50 µM

Reported IC50 for CCOC(=O)c1oc2ccc(S(=O)(=O)N(CCc3ccccc3)Cc3ccccc3Br)cc2c1C [Example M4-16] was 50 to 100 µM

====

Documented IC50 across a set of compounds
Molecular target: FXR (Homo sapiens, UniProt Q96RI1)
Construct: 5 μL of 20 nM FXR-LBD Complete Coregulator buffer G; purchased ThermoFisher PV4833
Assay: FXR antagonist screening by TR-FRET (LanthaScreen TR-FRET FXR co-activation assay kit)
Format: biochemical
Conditions: Table 1.2, FXR antagonistic activity; TR-FRET with CDCA; geometric means of at least two independent runs

Observe how each entry below is paired with its result.
CCOC(=O)c1oc2ccc(S(=O)(=O)N(CCc3ccccc3)c3ccccc3N3C4CCC3CN(C(=O)c3sccc3Br)C4)cc2c1C    50 to 100 µM
CCOC(=O)c1oc2ccc(S(=O)(=O)N(CCc3ccccc3)c3ccccc3N3CCN(C(=O)c4ccc(C)s4)CC3)cc2c1C    50 to 100 µM
Cc1c(C(=O)O)oc2ccc(S(=O)(=O)N(CCc3ccccc3)c3ccccc3N3CCN(C(=O)c4sccc4Cl)CC3)cc12    0.1 to 10 µM
O=C(O)c1cc2ccc(S(=O)(=O)N(CCc3ccccc3)c3ccccc3N3CCN(C(=O)c4sccc4Br)CC3)cc2s1    0.1 to 10 µM
CCOC(=O)c1oc2ccc(S(=O)(=O)N(CCc3ccccc3)c3ccccc3N3CCC4(CC3)CN(C(=O)c3sccc3Br)C4)cc2c1C    50 to 100 µM

Shift focus to the following entry.
IC50 for FXR (Homo sapiens, UniProt Q96RI1) with input Cc1c(C(=O)O)oc2ccc(S(=O)(=O)N(CCc3ccccc3)c3ccccc3N3CCN(C(=O)c4ccc(NC(=O)OC(C)(C)C)cc4)CC3)cc12 equals 0.1 to 10 µM

====

Molecular target: FXR (Homo sapiens, UniProt Q96RI1)
Construct: 5 μL of 20 nM FXR-LBD Complete Coregulator buffer G; purchased ThermoFisher PV4833
Experiment: FXR antagonist screening by TR-FRET (LanthaScreen TR-FRET FXR co-activation assay kit)
Type: biochemical
Details: Table 1.2, FXR antagonistic activity; TR-FRET with CDCA; geometric means of at least two independent runs
pIC50: −log10 of the molar value.
Documented pIC50 across a set of molecules

Observe how each entry below is paired with its result.
CCOC(=O)c1oc2ccc(S(=O)(=O)N(CCc3ccccc3)c3ccccc3N3CCN(C(=O)c4ccc(F)cc4)CC3)cc2c1C    4.00 to 4.30
CCOC(=O)c1sc2ccc(S(=O)(=O)N(CCc3cccc(Cl)c3)c3ccccc3N3CCN(C(=O)c4sccc4Br)CC3)cc2c1C    4.00 to 4.30
CCOC(=O)c1oc2ccc(S(=O)(=O)N(CCc3ccccc3)c3ccccc3N3CCN(C(=O)c4cccs4)CC3)cc2c1C    4.00 to 4.30
Cc1c(C(=O)O)sc2ccc(S(=O)(=O)N(CCc3ccccc3)c3ccccc3N3CCN(C(=O)c4sccc4Br)CC3)cc12    5.00 to 7.00
Cc1c(C(=O)O)sc2ccc(S(=O)(=O)N(CCc3ccccc3[N+](=O)[O-])c3ccccc3N3CCN(C(=O)c4sccc4Br)CC3)cc12    5.00 to 7.00
CCOC(=O)c1sc2ccc(S(=O)(=O)N(CCc3ccc(C(F)(F)F)cc3)c3ccccc3N3CCN(C(=O)c4sccc4Br)CC3)cc2c1C    4.00 to 4.30
CCOC(=O)c1oc2ccc(S(=O)(=O)N(CCc3ccccc3)c3ccccc3N3CCN(C(=O)c4ccc(C)c(C)c4)CC3)cc2c1C    4.00 to 4.30
Cc1c(C(=O)O)oc2ccc(S(=O)(=O)N(CCc3ccccc3)c3ccccc3N3CCN(C(=O)c4ccco4)CC3)cc12    5.00 to 7.00
CCOC(=O)c1oc2ccc(S(=O)(=O)N(CCc3ccccc3)c3ccccc3N3CCC4(CCN(C(=O)c5sccc5Br)C4)CC3)cc2c1C    4.00 to 4.30
O=C(O)c1cc2cc(S(=O)(=O)N(CCc3ccccc3)c3ccccc3N3CCN(C(=O)c4sccc4Br)CC3)ccc2o1    5.00 to 7.00

Reported pIC50 for Cc1c(C(=O)O)oc2ccc(S(=O)(=O)N(CCc3ccccc3)c3ccccc3N3CCN(C(=O)C4CCCS4)CC3)cc12 (stereo not shown) was 5.00 to 7.00

Reported pIC50 for CCOC(=O)c1oc2ccc(S(=O)(=O)N(CCc3ccccc3)c3ccccc3N3CCN(C(=O)c4ccsc4)CC3)cc2c1C was 4.00 to 4.30

Reported pIC50 for CCOC(=O)c1oc2ccc(S(=O)(=O)N(CCc3ccccc3)c3ccccc3N3CCN(C(=O)c4cccc(C)c4)CC3)cc2c1C was 4.00 to 4.30
